Tested on: EKVX NSCLC
Assay: NCI tumour cell line growth inhibition, 48 h
Listed molecules paired with reported TGI

molecule: COc1ccc(C#Cc2ccc(=O)oc2-c2cc(OC)c(OC)c(OC)c2)cc1O
TGI: > 100 µM
//
molecule: c1ccc(-c2nc3ccccc3nc2SCc2cccnc2)cc1
TGI: > 100 µM
//
molecule: CC1=C2CC(C)(C)/C=C\C(=O)/C(C)=C\C3=C[C@H](C)C[C@]3(O2)C1=O
TGI: 6.15 µM
//
molecule: O=C1C(Cl)=C(Nc2ccc(Nc3ccccc3)c(NC3=C(Cl)C(=O)c4ccccc4C3=O)c2)C(=O)c2ccccc21
TGI: 96.4 µM
//
molecule: CCN(CC)CCCC(C)Nc1ccnc2cc(Cl)ccc12 (stereo not given)
TGI: > 100 µM
//
molecule: O=c1c2ccccc2[nH]n1Cc1ccccc1
TGI: > 100 µM
//
molecule: O=C1/C=C/[C@@H](O)[C@@H]2C[C@@H](O)C[C@H]2/C=C/CCC[C@H](CCc2cccc3ccccc23)O1
TGI: 14 µM
//
molecule: CCC[CH2][Sn]([CH2]CCC)([O]c1cccc2cccnc12)[O]c1cccc2cccnc12
TGI: 1.22 µM
//
molecule: COc1c(C)cc2c(C(C)C)c(O)c(O)c(C=O)c2c1O
TGI: 95.1 µM
//
molecule: c1cc(-c2ccc(-c3ccc(-c4ccc(-c5ccncc5)o4)cc3)o2)ccn1
TGI: 45 µM
//
molecule: CSCC[C@@H]1C(=O)N(C)[C@H](C(C)(C)C)N1C(=O)c1ccccc1
TGI: > 100 µM
//
molecule: NS(=O)(=O)c1nnc(NC(=O)C23CC4CC(CC(C4)C2)C3)s1
TGI: > 100 µM
//
molecule: C[C@H]1/C(=C/C(=O)OCCN(C)C)CC[C@H]2[C@H]1C(=O)C[C@H]1C(C)(C)[C@@H](O)CC[C@]21C
TGI: > 100 µM
//
molecule: O=C(O)[C@H](Cc1c[nH]c2ccccc12)N1C(=O)c2ccccc2C1=O
TGI: > 100 µM
//
molecule: COc1ccc(/C=C/C(=O)/C=C/c2ccc(OC)cc2OC)c(OC)c1
TGI: 33.3 µM
//
molecule: CC1=CC(C)=NN=C(N)N1S(=O)(=O)c1cc(C)c(Cl)cc1SCc1ccccc1
TGI: > 100 µM
//
molecule: CCOC(=O)c1nc2ccc(C(F)(F)F)cc2nc1Nc1cc(OC)c(OC)c(OC)c1
TGI: > 100 µM
//
molecule: COc1cc(-c2nc3ccc(N4CCN(C)CC4)cc3[nH]2)c(OC)c2[nH]c(COC(C)=O)nc12
TGI: > 100 µM
//
molecule: CCC(=O)N1C(=O)OCC1C(C)C (stereo not given)
TGI: > 100 µM
//
molecule: Cc1cccc(-n2c(N)c(-c3nc4ccccc4[nH]3)sc2=S)c1
TGI: 82.7 µM
//
molecule: NCCSc1cc(O)c2c(c1N)C(=O)c1ccccc1C2=O
TGI: > 100 µM
//
molecule: COc1ccc(/C(=N\NC(=O)NN)C(c2ccc(OC)cc2)C2(O)C(=O)Nc3c(Cl)cc(Cl)cc32)cc1 (stereo not given)
TGI: > 100 µM
//
molecule: O=C(/C=C/c1ccc(Cl)cc1)c1ccccc(=O)c1O
TGI: 18.3 µM
//
molecule: Cc1c(O)c(N=Nc2nc3ccccc3s2)c2ccccc2c1O
TGI: > 50 µM
//
molecule: CCOC(=O)C(NC(=O)c1ccccc1)(Nc1ccc(S(=O)(=O)Nc2ncccn2)cc1)C(F)(F)F (stereo not given)
TGI: > 100 µM
//
molecule: CCCCCCCCCCCC(=O)OC[C@H](C[As](=O)(O)O)OC(=O)CCCCCCCCCCC
TGI: 25.6 µM
//
molecule: CCOC(=O)/C=C(\C(=O)OCC)n1ccc(=O)n(Cc2cnnn2CCCCOC(C)=O)c1=O
TGI: 24.8 µM
//
molecule: Clc1cccc(-c2sc(-c3ccsc3)cc2Cc2ccsc2)c1
TGI: > 10 µM
//
molecule: COC(=O)C1CCN(C(=O)OC(C)(C)C)CC1
TGI: > 100 µM
//
molecule: N#CC(C(=O)C(=O)Nc1ccccc1)c1ccccc1 (stereo not given)
TGI: > 100 µM
//
molecule: CC(Oc1ccccc1Cl)C(=O)NN1C(=O)CC(=O)N(c2ccccc2)C1=S (stereo not given)
TGI: > 100 µM
//
molecule: Cc1c[n+]2c3ccccc3c3ccccc3c2s1
TGI: > 100 µM
//
molecule: O=C(O)/C(Cl)=C(\Cl)C(=O)c1ccccc1
TGI: > 100 µM
//
molecule: CCCCn1c(CSc2ccc(Cl)cc2)c(C(=O)OCC)c2cc(OC)c(Br)cc21
TGI: > 100 µM
//
molecule: COc1ccc([N+](=O)[O-])c2c(NCCCN(C)C)ccnc12
TGI: 22.8 µM
//
molecule: CCCCCCCCCCCCCCCCCc1nccn1CCOCCO
TGI: 10.3 µg/mL
//
molecule: COc1cc(C(=O)O[C@H](C(=O)NCCCNC(=O)[C@@H](OC(=O)c2cc(OC)cc3c(C)cccc23)[C@]2(C)CO2)[C@]2(C)CO2)c2cccc(C)c2c1
TGI: 1.61 µM
//
molecule: COC(=O)c1cc(C(=O)OC)c(CC(=O)C(=O)NC2C3CC4CC(C3)CC2C4)nc1CC(=O)C(=O)NC1C2CC3CC(C2)CC1C3 (stereo not given)
TGI: > 100 µM
//
molecule: COC(=O)C1CCC(=O)N1C(c1cc(OC)c(OC)c(OC)c1)c1cc(OC)c(OC)c(OC)c1 (stereo not given)
TGI: > 100 µM
//
molecule: NC(N)=NCC1CCCCCCN1 (stereo not given)
TGI: > 100 µM

* * *

Test system: A498 renal
Assay: NCI tumour cell line growth inhibition, 48 h

compound: COC(=O)C1CCC(=S)N1C(=O)OCc1ccccc1 (stereo not drawn)
TGI: > 100 µM
//
compound: CSc1nc(C)cc(Nc2ccc(O)c(CN3CCOCC3)c2)n1
TGI: > 100 µM
//
compound: O=C(O)/C(Cl)=C(\Cl)C(=O)c1ccccc1
TGI: > 100 µM

* * *

System: MDA-MB-435
Assay: NCI tumour cell line growth inhibition, 48 h

molecule: CCOC(=O)C(NC(=O)c1ccccc1)(Nc1ccc(S(=O)(=O)Nc2ncccn2)cc1)C(F)(F)F (stereo not drawn)
TGI: > 100 µM
--
molecule: COC(=O)C1CCC(=S)N1C(=O)OCc1ccccc1 (stereo not drawn)
TGI: > 100 µM
--
molecule: Cc1ccc(C(=O)Nc2ccc(CP(=O)(O)O)cc2)cc1NC(=O)c1cccc(N)c1
TGI: > 100 µM
--
molecule: O=P1(c2ccccc2)c2ccccc2-c2ccccc21
TGI: > 100 µM
--
molecule: O=c1c2ccc(S(=O)(=O)c3ccc4c(=O)n5c6ccccc6nc5c5cccc3c45)c3cccc(c32)c2nc3ccccc3n12
TGI: > 100 µM
--
molecule: CSc1nc(C)cc(Nc2ccc(O)c(CN3CCOCC3)c2)n1
TGI: > 100 µM
--
molecule: CC1(C)S[C@@H]2[C@H](N3C(=O)c4ccccc4C3=O)CN2[C@H]1NC(=O)N[C@@H]1N2C[C@@H](N3C(=O)c4ccccc4C3=O)[C@H]2SC1(C)C
TGI: > 100 µM
--
molecule: NC(N)=NS(=O)(=O)c1ccc(N/N=C2/CCOC2=O)cc1
TGI: > 100 µM

* * *

System: UACC-62 melanoma
Assay: NCI tumour cell line growth inhibition, 48 h
Listed molecules paired with reported TGI
reported_property: TGI

molecule: CC(CC(N)C(=O)O)C(=O)O (centres undefined)
assay_value: > 100 µM

molecule: CCOC(=O)CC(c1ccccc1)C(C)(C(=O)OCC)C(=O)OCC (centres undefined)
assay_value: > 100 µM

molecule: O=C(O)C[C@@H](Cl)[C@H](NC(=O)OCc1ccccc1)C(=O)O
assay_value: > 100 µM

molecule: CCOC(=O)C(=O)Nc1nc2c(OCC)cccc2s1
assay_value: > 100 µM

molecule: COC(=O)c1cc(C(=O)OC)c(CC(=O)C(=O)NC2C3CC4CC(C3)CC2C4)nc1CC(=O)C(=O)NC1C2CC3CC(C2)CC1C3 (centres undefined)
assay_value: > 100 µM

molecule: CC(C)C12Cc3c(ccc4ccccc34)OC1(C)Oc1ccc3ccccc3c1C2 (centres undefined)
assay_value: > 100 µM

molecule: Cc1n[nH]c(=S)n(C)c1=S
assay_value: > 100 µM

molecule: CC(CCC[C@H](C)CO)[C@H]1[C@@H](O)C(O)C2[C@@H]3C[C@@H](O)C4(O)C[C@@H](O)CC[C@]4(C)C3CC[C@@]21C (some centres undefined)
assay_value: > 100 µM

molecule: C=CCNC(=S)N1CC(C)C(=O)Nc2cc(Cl)ccc21 (centres undefined)
assay_value: > 100 µM

* * *

System: OVCAR-4 ovarian
Experiment: NCI tumour cell line growth inhibition, 48 h
Listed molecules paired with reported TGI

compound_structure: C[C@H]1/C(=C/C(=O)OCCN(C)C)CC[C@H]2[C@H]1C(=O)C[C@H]1C(C)(C)[C@@H](O)CC[C@]21C
TGI: > 100 µM
--
compound_structure: Cn1c(=O)c(Oc2ccc(F)cc2F)cc2cnc(NC(C)(C)CO)nc21
TGI: > 25 µM
--
compound_structure: Oc1ccc(Nc2ccc3ccccc3c2)cc1
TGI: > 100 µM
